Assay: Intrinsic clearance in mouse hepatocytes assessed per 10^6 cells at 1 uM by LC-MS/MS analysis
Type: ADME, cell-based, Hepatocyte
Details: read-out: CLH
reported-endpoint: hepatocyte CLint at 1 µM (µL/min/1e6 cells)
Write the answer as a number in µL/min/1e6 cells, unit excluded.

// query Please look up its hepatocyte CLint at 1 µM: CC(CCNCC12CC3CC(CC(C3)C1)C2)Nc1c(F)cnc2cc(Cl)ccc12 (stereo unspecified)
// result 8.7

----------
Biological target: Voltage-gated inwardly rectifying potassium channel KCNH2 (Homo sapiens)
Sequence (Q12809 whole entry): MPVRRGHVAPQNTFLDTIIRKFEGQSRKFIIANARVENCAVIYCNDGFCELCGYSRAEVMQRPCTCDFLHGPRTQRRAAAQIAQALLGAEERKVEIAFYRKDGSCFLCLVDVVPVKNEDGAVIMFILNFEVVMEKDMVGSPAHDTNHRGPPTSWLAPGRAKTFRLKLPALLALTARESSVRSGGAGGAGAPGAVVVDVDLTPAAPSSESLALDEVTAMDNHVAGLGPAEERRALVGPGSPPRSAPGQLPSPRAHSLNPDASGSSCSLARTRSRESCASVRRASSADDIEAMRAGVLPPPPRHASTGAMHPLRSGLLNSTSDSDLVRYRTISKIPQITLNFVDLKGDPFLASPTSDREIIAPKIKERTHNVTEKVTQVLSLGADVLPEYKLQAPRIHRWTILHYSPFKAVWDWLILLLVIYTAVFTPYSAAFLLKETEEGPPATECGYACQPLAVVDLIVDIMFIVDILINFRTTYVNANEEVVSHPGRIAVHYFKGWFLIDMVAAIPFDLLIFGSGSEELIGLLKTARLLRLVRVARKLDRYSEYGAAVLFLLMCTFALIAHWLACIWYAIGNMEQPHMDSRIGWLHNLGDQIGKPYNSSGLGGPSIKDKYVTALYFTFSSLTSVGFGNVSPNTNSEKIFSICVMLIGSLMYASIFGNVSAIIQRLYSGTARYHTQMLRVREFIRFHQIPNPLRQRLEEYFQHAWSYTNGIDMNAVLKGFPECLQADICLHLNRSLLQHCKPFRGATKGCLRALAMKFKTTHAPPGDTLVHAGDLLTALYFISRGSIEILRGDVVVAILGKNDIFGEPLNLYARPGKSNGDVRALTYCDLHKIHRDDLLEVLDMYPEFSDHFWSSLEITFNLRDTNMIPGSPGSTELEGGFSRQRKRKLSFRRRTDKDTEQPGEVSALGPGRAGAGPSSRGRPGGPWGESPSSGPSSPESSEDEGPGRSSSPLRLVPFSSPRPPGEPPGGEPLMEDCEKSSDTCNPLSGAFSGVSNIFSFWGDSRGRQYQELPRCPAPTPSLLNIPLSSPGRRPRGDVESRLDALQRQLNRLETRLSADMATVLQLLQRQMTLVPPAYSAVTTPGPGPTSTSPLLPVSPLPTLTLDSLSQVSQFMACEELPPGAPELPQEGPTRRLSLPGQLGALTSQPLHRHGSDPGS
Experiment: Inhibition of human ERG expressed in CHO cells by patch plate method
reported-endpoint: IC50

// query Please look up its IC50: CC(CCNCC12CC3CC(CC(C3)C1)C2)Nc1ccnc2cc(Cl)ccc12 (stereo unspecified)
// result > 5 µM

----------
Assay: Inhibition of beta hematin formation measured as hemin equivalent after 18 hrs
Type: physicochemical
reported-endpoint: IC50 (equiv)
Write the answer as a number in equiv, unit excluded.

Solved cases (5 shown):
// query Please look up its IC50: CC(CCNCC12CC3CC(CC(C3)C1)C2)Nc1ccnc2ccccc12 (stereo unspecified)
// result 1.22

// query Please look up its IC50: CCN(CC)CCCC(C)Nc1nc2cc(Cl)ccc2cc1F (stereo unspecified)
// result 2.43

// query Please look up its IC50: CCN(CC)CCCC(C)Nc1c(F)cnc2cc(Cl)ccc12 (stereo unspecified)
// result 1.07

// query Please look up its IC50: CC(CCNCC12CC3CC(CC(C3)C1)C2)Nc1c(F)cnc2ccccc12 (stereo unspecified)
// result 0.61

// query Please look up its IC50: CC(CCNCC12CC3CC(CC(C3)C1)C2)Nc1ccnc2cc(Cl)ccc12 (stereo unspecified)
// result 1.84

Pending compound:
// query Please look up its IC50: CC(CCNCC12CC3CC(CC(C3)C1)C2)Nc1c(F)cnc2cc(Cl)ccc12 (stereo unspecified)
// result 0.61

----------
Test system: HepG2
Test: Cytotoxicity against human HepG2 cells after 48 hrs by MTT assay
Type: cell-based
Conditions: HepG2, 48 h
reported-endpoint: log10(IC50) (log10 of the value in µM)
Please keep in mind that the values are log10 of IC50 expressed in µM.

Solved cases (6 shown):
// query Please look up its log10(IC50): CC(CCNCC12CC3CC(CC(C3)C1)C2)Nc1ccnc2cc(Cl)ccc12 (stereo not given)
// result 0.48

// query Please look up its log10(IC50): CC(CCCNCCC12CC3CC(CC(C3)C1)C2)Nc1ccnc2ccccc12 (stereo not given)
// result 0.20

// query Please look up its log10(IC50): CC(CCNCC12CC3CC(CC(C3)C1)C2)Nc1c(F)cnc2cc(Cl)ccc12 (stereo not given)
// result 0.60

// query Please look up its log10(IC50): CC(CCCNc1ccnc2cc(Cl)ccc12)NCCC12CC3CC(CC(C3)C1)C2 (stereo not given)
// result 0.41

// query Please look up its log10(IC50): CC(CCNCCC12CC3CC(CC(C3)C1)C2)Nc1ccnc2cc(Cl)ccc12 (stereo not given)
// result 1.39

// query Please look up its log10(IC50): CC(CCNCC12CC3CC(CC(C3)C1)C2)Nc1ccnc2ccccc12 (stereo not given)
// result 0.37

Others:
// query Please look up its log10(IC50): CC(CCNCCC12CC3CC(CC(C3)C1)C2)Nc1c(F)cnc2cc(Cl)ccc12 (stereo not given)
// result 0.51

// query Please look up its log10(IC50): CC(CCCNCCC12CC3CC(CC(C3)C1)C2)Nc1ccnc2cc(Cl)ccc12 (stereo not given)
// result 1.12
